target: CTX-M-14 S130A/K234R β-lactamase (Escherichia coli, UniProt Q9L5C7, K237R/S133A); construct: His6 (TEV-cleavable) (N, cleaved yes); assay: Clavulanic acid inhibition (Ki, Morrison fit), S130A/K234R enzyme; details: S130A/K234R; ampicillin as indicator substrate; 20 min preincubation
measured.property: pKi
# pKi is unitless: minus log10 of the molar concentration; print number only

Q: Consider the compound shown here: "O=C(O)[C@H]1/C(=C/CO)O[C@@H]2CC(=O)N21" What is its recorded pKi?
A: 3.57

====

molecular target: CTX-M-14 K234R β-lactamase (Escherichia coli, UniProt Q9L5C7, K237R); construct: His6 (TEV-cleavable) (N, cleaved yes); experiment: Clavulanic acid inhibition (Ki, Morrison fit), K234R enzyme; details: ampicillin as indicator substrate, 20 min preincubation
measured.property: pKi
# pKi is unitless: minus log10 of the molar concentration; print number only

Q: Consider the molecule shown here: "O=C(O)[C@H]1/C(=C/CO)O[C@@H]2CC(=O)N21" What is its recorded pKi?
A: 6.41

====

molecular target: CTX-M-14 K234R β-lactamase (Escherichia coli, UniProt Q9L5C7, K237R); construct: His6 (TEV-cleavable) (N, cleaved yes); made in house; host or cells: E. coli BL21(DE3), pET28a-CTX-M-14 with K234R; assay: Steady-state kinetics of β-lactam hydrolysis, K234R enzyme; assay type: biochemical; details: K234R compared with WT
Reported fold decrease in Km values are given for each entry in this list.
Numeric only. Scale: fold

Solved cases (4 shown):
Q: Missing value: fold decrease in Km, CTX-M-14 K234R β-lactamase (Escherichia coli, UniProt Q9L5C7, K237R), entry CO/N=C(\C(=O)N[C@@H]1C(=O)N2C(C(=O)O)=C(CSc3nc(=O)c(=O)[nH]n3C)CS[C@H]12)c1csc(N)n1 [ceftriaxone] . Fill in?
A: 2

Q: Missing value: fold decrease in Km, CTX-M-14 K234R β-lactamase (Escherichia coli, UniProt Q9L5C7, K237R), entry CO/N=C(\C(=O)N[C@@H]1C(=O)N2C(C(=O)O)=CCS[C@H]12)c1csc(N)n1 [ceftizoxime] . Fill in?
A: 8

Q: Missing value: fold decrease in Km, CTX-M-14 K234R β-lactamase (Escherichia coli, UniProt Q9L5C7, K237R), entry CO/N=C(\C(=O)N[C@@H]1C(=O)N2C(C(=O)O)=C(COC(C)=O)CS[C@H]12)c1csc(N)n1 [Cefotaxime, cefotaxime] . Fill in?
A: 6

Q: Missing value: fold decrease in Km, CTX-M-14 K234R β-lactamase (Escherichia coli, UniProt Q9L5C7, K237R), entry CC(=O)OCC1=C(C(=O)O)N2C(=O)[C@@H](NC(=O)Cc3cccs3)[C@H]2SC1 [cephalothin] . Fill in?
A: 20

Now let's try a different one.
Q: Missing value: fold decrease in Km, CTX-M-14 K234R β-lactamase (Escherichia coli, UniProt Q9L5C7, K237R), entry COCC1=C(C(=O)O)N2C(=O)[C@@H](NC(=O)/C(=N\OC)c3csc(N)n3)[C@H]2SC1 [cefpodoxime] . Fill in?
A: 9

====

molecular target: WT CTX-M-14 β-lactamase (Escherichia coli, UniProt Q9L5C7); construct: His6 (TEV-cleavable) (N, cleaved yes); test: Single-turnover stopped-flow kinetics, WT enzyme; details: fit of kobs from single turnover, read-out: KD (Ks, dissociation constant)
measured.property: Kd (µM)
Numeric only. Scale: µM

Q: Consider the compound shown here: "CO/N=C(\C(=O)N[C@@H]1C(=O)N2C(C(=O)O)=C(COC(C)=O)CS[C@H]12)c1csc(N)n1" What is its recorded Kd?
A: 74

====

target: CTX-M-14 K234R β-lactamase (Escherichia coli, UniProt Q9L5C7, K237R); construct: His6 (TEV-cleavable) (N, cleaved yes); made in house; host or cells: E. coli BL21(DE3), pET28a-CTX-M-14 with K234R; test: Steady-state kinetics of β-lactam hydrolysis, K234R enzyme; type: biochemical; conditions: K234R compared with WT
Reported fold decrease in kcat values are given for each entry in this list.
Numeric only. Scale: fold

Solved cases (4 shown):
Q: Consider the compound shown here: "COCC1=C(C(=O)O)N2C(=O)[C@@H](NC(=O)/C(=N\OC)c3csc(N)n3)[C@H]2SC1" What is its recorded fold decrease in kcat?
A: 430

Q: Consider the compound shown here: "CO/N=C(\C(=O)N[C@@H]1C(=O)N2C(C(=O)O)=C(COC(C)=O)CS[C@H]12)c1csc(N)n1" What is its recorded fold decrease in kcat?
A: 500

Q: Consider the compound shown here: "CO/N=C(\C(=O)N[C@@H]1C(=O)N2C(C(=O)O)=C(CSc3nc(=O)c(=O)[nH]n3C)CS[C@H]12)c1csc(N)n1" What is its recorded fold decrease in kcat?
A: 400

Q: Consider the compound shown here: "CO/N=C(\C(=O)N[C@@H]1C(=O)N2C(C(=O)O)=CCS[C@H]12)c1csc(N)n1" What is its recorded fold decrease in kcat?
A: 320

Now let's try a different one.
Q: Consider the compound shown here: "CC(=O)OCC1=C(C(=O)O)N2C(=O)[C@@H](NC(=O)Cc3cccs3)[C@H]2SC1" What is its recorded fold decrease in kcat?
A: 100

====

molecular target: WT CTX-M-14 β-lactamase (Escherichia coli, UniProt Q9L5C7); construct: His6 (TEV-cleavable) (N, cleaved yes); experiment: Clavulanic acid inhibition (Ki, Morrison fit), WT enzyme; conditions: ampicillin (100 μM) as indicator substrate, 20 min preincubation
measured.property: pKi
# pKi is unitless: minus log10 of the molar concentration; print number only

Q: Consider the compound shown here: "O=C(O)[C@H]1/C(=C/CO)O[C@@H]2CC(=O)N21" What is its recorded pKi?
A: 7.10

====

target: CTX-M-14 K234R β-lactamase (Escherichia coli, UniProt Q9L5C7, K237R); construct: His6 (TEV-cleavable) (N, cleaved yes); experiment: Single-turnover stopped-flow kinetics, K234R enzyme; settings: fit of kobs from single turnover
measured.property: Kd (µM)
Numeric only. Scale: µM

Q: Consider the compound shown here: CO/N=C(\C(=O)N[C@@H]1C(=O)N2C(C(=O)O)=C(COC(C)=O)CS[C@H]12)c1csc(N)n1 [Cefotaxime, cefotaxime] What is its recorded Kd?
A: 42
